Taken from patent US20260176249A1.

TEST: Metabolic stability in human liver microsomes
Format: in vitro ADME
CONDITION_NOTES: pH 7.4
QUANTITY_NAME: half-life at 1 µM (h)
Give bare numbers, in h.

// half-life at 1 µM lookup, compound = "CN1CCN(c2ccc(OC(F)(F)F)c(Nc3ncc4ccc5c(C(=O)NO)nn(CCO)c5c4n3)c2)CC1" , result: 1.06

* * *

TEST: Metabolic stability in human liver microsomes
Assay type: in vitro ADME
QUANTITY_NAME: 60 min remaining amount (%)
Give bare numbers, in %.

CN1CCN(c2ccc(OC(F)(F)F)c(Nc3ncc4c(n3)-c3c(c(C(N)=O)nn3CCO)CC4)c2)CC1 [Onvansertib, reference compound]; 64.8
CN1CCN(c2ccc(OC(F)(F)F)c(Nc3ncc4c(n3)-c3c(c(C(=O)NN)nn3CCO)CC4)c2)CC1 [Compound 13]; 58.5
CN1CCN(c2ccc(OCC(F)(F)F)c(Nc3ncc4c(n3)-c3c(c(C(N)=O)nn3CCO)CC4)c2)CC1 [Compound 24]; 40.1
CN1CCN(c2ccc(OC(F)(F)F)c(Nc3ncc4ccc5c(C(N)=O)nn(CCF)c5c4n3)c2)CC1 [Compound 18]; 7.83
CN1CCN(c2ccc(OC(F)(F)F)c(Nc3ncc4ccc5c(C(N)=O)nn(C)c5c4n3)c2)CC1 [Compound 3]; 7.83

For each of the molecules below, note its 60 min remaining amount.
1. CN1CCN(c2ccc(OC(F)(F)F)c(Nc3ncc4ccc5c(C(=O)NO)nn(CCO)c5c4n3)c2)CC1 [Compound 19]
2. CN1CCN(c2ccc(OC(F)(F)F)c(Nc3ncc4c(n3)-c3c(c(C(N)=O)cn3CCO)CC4)c2)CC1 [Compound 2]

51.9
49.9

* * *

TEST: Permeability and efflux transporter substrate evaluation in Caco-2 cells
Type: in vitro ADME
Design: dose or concentration left out as unconfirmed
CONDITION_NOTES: human, Caco-2, pH 7.4
Please go through the items and note down their efflux ratio at 120 min.
Give bare numbers.

Recorded efflux ratio at 120 min, per entry:
Cn1nc(C(N)=O)c2c1-c1nc(Nc3cc(N4CCN(CCO)CC4)ccc3OC(F)(F)F)ncc1CC2; 10.4
CN1CCN(c2ccc(OCC(F)(F)F)c(Nc3ncc4c(n3)-c3c(c(C(N)=O)nn3CCO)CC4)c2)CC1; 279
CN1CCN(c2ccc(OC(F)(F)F)c(Nc3ncc4c(n3)-c3c(c(C(=O)NOCCO)nn3C)CC4)c2)CC1; 22.1
CN1CCN(c2ccc(OC(F)(F)F)c(Nc3ncc4ccc5c(C(N)=O)nn(C)c5c4n3)c2)CC1; 1.32
Cn1nc(C(N)=O)c2ccc3cnc(Nc4cc(N5CCN(CCO)CC5)ccc4OC(F)(F)F)nc3c21; 7.27

Hi! Can you tell me efflux ratio at 120 min for each of these molecules?
1. CCc1sc(C(N)=O)c2c1-c1nc(Nc3cc(N4CCN(C)CC4)ccc3OC(F)(F)F)ncc1CC2
2. CN1CCN(c2ccc(OC(F)(F)F)c(Nc3ncc4c(n3)-c3c(c(C(N)=O)nn3CCC#N)CC4)c2)CC1

[1.97, 22.1]

* * *

Consider the following compounds; for each one, report its Imax.
SYSTEM_UNDER_TEST: PLK1 kinase (Homo sapiens)
Construct: purchased Carnabio (Carna Biosciences) 05-157
Sequence (P53350 whole entry): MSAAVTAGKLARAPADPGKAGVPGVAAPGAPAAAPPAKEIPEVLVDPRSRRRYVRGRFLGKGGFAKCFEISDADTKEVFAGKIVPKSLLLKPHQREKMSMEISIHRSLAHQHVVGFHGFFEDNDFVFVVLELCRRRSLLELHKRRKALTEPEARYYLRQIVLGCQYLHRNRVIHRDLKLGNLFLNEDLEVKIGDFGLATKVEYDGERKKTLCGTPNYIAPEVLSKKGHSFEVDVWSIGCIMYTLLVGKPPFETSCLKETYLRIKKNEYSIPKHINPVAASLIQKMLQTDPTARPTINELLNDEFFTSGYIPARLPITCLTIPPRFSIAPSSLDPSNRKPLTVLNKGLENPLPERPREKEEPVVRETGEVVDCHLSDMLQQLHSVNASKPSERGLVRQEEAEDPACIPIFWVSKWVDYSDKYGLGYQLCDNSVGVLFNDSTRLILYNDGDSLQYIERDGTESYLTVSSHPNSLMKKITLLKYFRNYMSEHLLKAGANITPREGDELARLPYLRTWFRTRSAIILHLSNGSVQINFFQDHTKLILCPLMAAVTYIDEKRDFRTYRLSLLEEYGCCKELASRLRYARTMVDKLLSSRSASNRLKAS
TEST: Inhibitory activity on PLK1 kinase
Assay type: biochemical
CONDITION_NOTES: maximum effect caused by the compound at the test concentration
Numbers only, in %.

CN1CCN(c2ccc(OC(F)(F)F)c(Nc3ncc4c(n3)-c3c(c(C(=O)NS(=O)(=O)C5CC5)nn3CCO)CC4)c2)CC1 [Compound 9]; 72.68
CN1CCN(c2ccc(OC(F)(F)F)c(Nc3ncc4c(n3)-c3c(c(C(N)=O)nn3CCC#N)CC4)c2)CC1 [Compound 4]; 99.51
CN1CCN(c2ccc(OC(F)(F)F)c(Nc3ncc4ccc5c(C(=O)NO)nn(CC(F)(F)F)c5c4n3)c2)CC1 [Compound 32]; 99.87

As a next step, examine the compound that follows.
Imax in this record for CN1CCN(c2ccc(OC(F)(F)F)c(Nc3ncc4ccc5c(C(=O)NO)nn(CCF)c5c4n3)c2)CC1 [Compound 25] : 100.23
